Measured IC50 of individual entries
target or system: human ALK5 (Homo sapiens)
Construct: human ALK5 (recombinant TGF β1 N-term GST-tagged, 80-end); GST (N); purchased
experiment: ADP-GLO Kinases assay, inhibitory activity on ALK5
Type: biochemical
assay conditions: Table 11, comparative examples; same in vitro assay
Express the result in µM but write the number alone.

# compound, result type, unit label, value observed
records = [
    ("Oc1ccc(-c2cc(-c3cc(Cl)ccc3F)nc3c2OCCN3)cc1 [Example C2, reference compound]", "IC50", "µM", 1.7),
]

Now, please, on to the next compound.
Consider the compound Fc1ccc(Cl)cc1-c1cc(-c2ccncc2)c2c(n1)NCCO2 [Example C1, reference compound] and give its measured IC50. 6.5

###

target or system: human ALK5 (Homo sapiens, UniProt P36897)
Construct: human ALK5 (recombinant TGF β1 N-term GST-tagged, 80-end); GST (N); purchased
Sequence (P36897 80-503 limits assumed): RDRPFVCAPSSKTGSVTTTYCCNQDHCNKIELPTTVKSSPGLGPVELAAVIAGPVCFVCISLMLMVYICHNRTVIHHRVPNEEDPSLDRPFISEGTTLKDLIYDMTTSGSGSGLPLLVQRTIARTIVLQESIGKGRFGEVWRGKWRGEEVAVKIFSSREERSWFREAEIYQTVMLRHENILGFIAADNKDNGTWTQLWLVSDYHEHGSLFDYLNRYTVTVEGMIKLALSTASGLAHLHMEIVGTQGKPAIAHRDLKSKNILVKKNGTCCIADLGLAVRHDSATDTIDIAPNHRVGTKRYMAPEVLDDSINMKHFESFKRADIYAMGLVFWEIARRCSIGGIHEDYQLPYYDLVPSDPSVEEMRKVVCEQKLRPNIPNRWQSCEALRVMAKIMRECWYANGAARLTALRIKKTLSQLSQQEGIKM
experiment: ADP-GLO Kinases assay, inhibitory activity on ALK5
Format: biochemical
assay conditions: Table 10; purified recombinant human ALK5 2.6 nM, ADP-Glo, 25° C., 150 min incubation
result type: IC50

# mol, IC50
data = [
    ("CN(C)CCNC(=O)c1cnccc1Nc1cc(-c2cc(Cl)ccc2F)nc2c1OCCN2", "< 1 nM"),
    ("Clc1cccc(-c2cc(Nc3ccncc3)c3c(n2)NCCO3)c1", "1 to 5 nM"),
]

Consider the molecule CN1CCN(CCOC(=O)c2cnccc2Nc2cc(-c3cc(Cl)ccc3F)nc3c2OCCN3)CC1 and give its measured IC50. < 1 nM

Consider the molecule O=C(NCCN(CCO)CCO)c1cnccc1Nc1cc(-c2cc(Cl)ccc2F)nc2c1OCCN2 and give its measured IC50. < 1 nM

Consider the molecule Cc1csc(-c2cc(Nc3ccncc3)c3c(n2)NCCO3)n1 and give its measured IC50. 5 to 10 nM

Consider the molecule Fc1ccc(-c2cc(Nc3ccncc3)c3c(n2)NCCO3)cc1Cl and give its measured IC50. 5 to 10 nM

Consider the molecule Cc1cccc(-c2cc(Nc3ccncc3)c3c(n2)NCCO3)c1 and give its measured IC50. 1 to 5 nM

Consider the molecule CN(C)CCNC(=O)c1cc2c(Nc3cc(-c4cc(Cl)ccc4F)nc4c3OCCN4)ccnc2[nH]1 and give its measured IC50. < 1 nM

Consider the molecule Fc1ccccc1-c1cc(Nc2ccncc2)c2c(n1)NCCO2 and give its measured IC50. 1 to 5 nM

###

Measured IC50 of individual entries
target or system: human ALK5 (Homo sapiens, UniProt P36897)
Construct: human ALK5 (recombinant TGF β1 N-term GST-tagged, 80-end); GST (N); purchased
experiment: ADP-GLO Kinases assay, inhibitory activity on ALK5
Format: biochemical
assay conditions: Table 10; purified recombinant human ALK5 2.6 nM, ADP-Glo, 25° C., 150 min incubation

Take a look at these entries with their results.
# mol, IC50
records = [
    ("COC(=O)c1cnccc1Nc1cc(-c2cccc(C)n2)nc2c1OCCN2", "< 1 nM"),
    ("Cc1cccc(-c2cc(Nc3ccnc4[nH]ncc34)c3c(n2)NCCO3)n1", "< 1 nM"),
    ("CS(=O)(=O)N1CCN(CCNC(=O)c2cnccc2Nc2cc(-c3cc(Cl)ccc3F)nc3c2OCCN3)CC1", "1 to 5 nM"),
]

Now, please, on to the next molecule.
Consider the molecule O=C(O)c1cnccc1Nc1cc(-c2cc(Cl)ccc2F)nc2c1OCCN2 and give its measured IC50. < 1 nM

Where these numbers come from: patent US20240190891A1
